Data origin: ChEMBL document CHEMBL1142737

- Assay notes: Cytotoxicity against V79 chinese hamster lung cells was determined via MTT assay after 24 hr
- Type: cell-based, Cricetulus griseus
Measurement name: pIC50
pIC50 is a log-scale quantity: -log10 of the concentration expressed in molar.

Kindly note the recorded pIC50 for MOLYBDOCENE DICHLORIDE , which is 3.09
